- Experimental Conditions: buffer; pH 7.4; 200.0 µM
Endpoint: solubility kinetic (µg/mL)
# value in µg/mL; strip the unit string

Could you share which solubility kinetic value was measured for CSc1ccccc1NC(=O)COC(=O)c1ccc(O)cc1 ? 12.2

Subsequent entry: O=C(CCC(=O)N1CCCC1)Nc1ccc([N+](=O)[O-])cc1 41.3

Subsequent entry: O=C(Nc1ccccc1Cl)OCc1cncs1 35.1

Subsequent entry: C=CCNc1nc(N)c([N+](=O)[O-])c(Nc2cccc(Cl)c2)n1 0.1

Subsequent entry: O=[N+]([O-])c1cc(NCCO)c(N2CCCCCC2)c2nonc12 42.3

Subsequent entry: Cc1nc(Cl)c(C(=O)NCc2ccccc2)c(C)c1Cl 35.6

Subsequent entry: Cc1ccc(NC2CC(C)NC(=S)N2)cc1 (stereo not given) 33.1

Subsequent entry: Cc1ccc(S(=O)(=O)CCN2C=CC(C(F)(F)F)=NCC2)cc1 51.4

Subsequent entry: COC(=O)c1sccc1NC(=O)Nc1cccc(C)c1C 8.1

Subsequent entry: CCOc1ccc(CC(=O)Nc2nccs2)cc1 7.7

Subsequent entry: CN(C)c1cccc2c(S(=O)(=O)N3CCCC3)cccc12 34
